System: human red blood cells (hRBC)
ASSAY_EXPLANATION: Hemolytic activity
Type: cell-based
COND: concentration at which 50% hemolysis was observed
Non-standard residues stand in square brackets, D forms with d. Residues, ends and D or L forms follow the SMILES beside them. Dip = N[C@H](C(=O)O)C(c1ccccc1)c1ccccc1
MEASUREMENT_TYPE: HC50 (µg/mL)
One number for each entry, in µg/mL.

[
  {
    "MOLECULE": "N=C(N)NCCC[C@@H]1NC(=O)[C@H](CCCNC(=N)N)NC(=O)[C@H](C(c2ccccc2)c2ccccc2)NC(=O)[C@H](Cc2c[nH]c3ccccc23)NC(=O)[C@H](C(c2ccccc2)c2ccccc2)NC(=O)[C@H](CCCNC(=N)N)NC1=O [1b, c[Arg-Arg-Arg-Dip-Trp-Dip]] (cyclo([Dip]RRR[Dip]W))",
    "TEST_TARGET": "human red blood cells (hRBC)",
    "HC50 [µg/mL]": 75
  }
]

Each molecule below has a recorded value; state its HC50.
1. N=C(N)NCCC[C@@H]1NC(=O)[C@H](CCCNC(=N)N)NC(=O)[C@H](Cc2c[nH]c3ccccc23)NC(=O)[C@H](C(c2ccccc2)c2ccccc2)NC(=O)[C@H](C(c2ccccc2)c2ccccc2)NC(=O)[C@H](CCCNC(=N)N)NC(=O)[C@H](CCCNC(=N)N)NC1=O [3c, c[Arg-Arg-Arg-Arg-Dip-Dip-Trp]] (cyclo([Dip][Dip]WRRRR))
2. N=C(N)NCCC[C@@H]1NC(=O)[C@H](CCCNC(=N)N)NC(=O)[C@H](Cc2c[nH]c3ccccc23)NC(=O)[C@H](C(c2ccccc2)c2ccccc2)NC(=O)[C@H](C(c2ccccc2)c2ccccc2)NC(=O)[C@H](CCCNC(=N)N)NC1=O [1c, c[Arg-Arg-Arg-Dip-Dip-Trp]] (cyclo([Dip][Dip]WRRR))
3. N=C(N)NCCC[C@@H]1NC(=O)[C@H](CCCNC(=N)N)NC(=O)[C@H](CCCNC(=N)N)NC(=O)[C@H](C(c2ccccc2)c2ccccc2)NC(=O)[C@H](C(c2ccccc2)c2ccccc2)NC(=O)[C@H](Cc2c[nH]c3ccccc23)NC(=O)[C@H](CCCNC(=N)N)NC1=O [3a, c[Arg-Arg-Arg-Arg-Trp-Dip-Dip]] (cyclo([Dip][Dip]RRRRW))

Result:
1. 100
2. 65
3. 85
